- Tgt: T1, RBFOX1 RRM RbFoxmut (Fox-RRM*) (Homo sapiens, UniProt Q9NWB1 109-208, R118D;E147R;N151S;E152T)
- T1 sequence: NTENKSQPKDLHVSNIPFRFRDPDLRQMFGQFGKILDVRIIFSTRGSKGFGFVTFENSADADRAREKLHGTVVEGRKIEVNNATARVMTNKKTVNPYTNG
- Test summary: EMSA; HiTS-Eq, 1 nM pool, 10 min; buffer printed only for the single-RNA assays: 10 mM Tris pH 7.5, 150 mM NaCl, 3.4 mM EDTA, 0.001% NP-40, 30 C
- Condition set: tags: His6 N-terminal (pET28a); label: 5' 32P
Whole data set: some 16,000 sequences, median “ka relative to ugcaugu” near 0.096, cut for the highest 2% near 0.35. The sample as a whole holds a higher share of the highest values than the screen did.
Measurement type: binding signal

Entry under review: CAUAUAU (DNA:RNA) RNA: GGGAGACCGGAAUUCAGAUUGUCCCAUAUAUUUAAAUCCCGUCGUAGCCACCA DNA 1: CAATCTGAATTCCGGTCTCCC DNA 2: TGGTGGCTACGACGGGATT . Reported binding signal?
0.114 KA relative to UGCAUGU

Further cases:
So what does the record say about binding signal for ACUUUAC (DNA:RNA) RNA: GGGAGACCGGAAUUCAGAUUGUCCACUUUACUUAAAUCCCGUCGUAGCCACCA DNA 1: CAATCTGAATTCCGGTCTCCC DNA 2: TGGTGGCTACGACGGGATT ?
0.114 KA relative to UGCAUGU
